Organism: Rattus norvegicus
protocolDescription: DrugMatrix - Regimen: Daily Repeat
Format: toxicity, organism-based, Sprague-Dawley
Parameters: regimen Daily Repeat, gender Male, age 6-8 weeks
assaySetup: in vivo, po, 0 mg/kg, 120 h, tissue Blood, route oral GAVAGE, dose level Control, time 5 day, […]
Provide the reported MEAN CORPUSCULAR VOLUME of each item.
Give the value in fL but do not write fL after it.

compound CC[C@H](C)C(=O)O[C@H]1C[C@@H](C)C=C2C=C[C@H](C)[C@H](CC[C@@H]3C[C@@H](O)CC(=O)O3)[C@H]21 [LOVASTATIN] , MEAN CORPUSCULAR VOLUME observed: 63.93

compound CC(CCc1ccc(O)cc1)NCCc1ccc(O)c(O)c1 (stereo not drawn) [DOBUTAMINE] , MEAN CORPUSCULAR VOLUME observed: 70.13

compound C#C[C@]1(O)CC[C@H]2[C@@H]3CCc4cc(O)ccc4[C@H]3CC[C@@]21C [ETHINYL ESTRADIOL] , MEAN CORPUSCULAR VOLUME observed: 63.38

compound CC(C)Cc1ccc(CC(=O)O)cc1 [IBUFENAC] , MEAN CORPUSCULAR VOLUME observed: 60.92

compound CC(=O)Nc1nnc(S(N)(=O)=O)s1 [ACETAZOLAMIDE] , MEAN CORPUSCULAR VOLUME observed: 64.93

compound OCCN1CCN(CCCN2c3ccccc3Sc3ccc(C(F)(F)F)cc32)CC1 [FLUPHENAZINE] , MEAN CORPUSCULAR VOLUME observed: 62.87

compound CCn1cc(C(=O)O)c(=O)c2cc(F)c(N3CCNCC3)nc21 [ENOXACIN] , MEAN CORPUSCULAR VOLUME observed: 63.38

compound COc1ncnc(NS(=O)(=O)c2ccc(N)cc2)c1OC [SULFADOXINE] , MEAN CORPUSCULAR VOLUME observed: 64.93

###

Organism: Rattus norvegicus
protocolDescription: DrugMatrix - Regimen: Daily Repeat
Type: toxicity, organism-based, Sprague-Dawley
Design: regimen Daily Repeat, gender Male, age 6-8 weeks
assaySetup: in vivo, po, 0 mg/kg, 72 h, tissue Blood, route oral GAVAGE, dose level Control, time 3 day, […]
measuredParameter: ABSOLUTE LYMPHOCYTE

molecule OCCN1CCN(CCCN2c3ccccc3Sc3ccc(C(F)(F)F)cc32)CC1 , ABSOLUTE LYMPHOCYTE observed: 6275.67 CELLS/uL

molecule CC[C@H](C)C(=O)O[C@H]1C[C@H](O)C=C2C=C[C@H](C)[C@H](CC[C@@H](O)C[C@@H](O)CC(=O)O)[C@H]21 , ABSOLUTE LYMPHOCYTE observed: 11144.67 CELLS/uL

molecule COc1ncnc(NS(=O)(=O)c2ccc(N)cc2)c1OC , ABSOLUTE LYMPHOCYTE observed: 8545.5 CELLS/uL

molecule CC(CCc1ccc(O)cc1)NCCc1ccc(O)c(O)c1 (stereo not drawn) , ABSOLUTE LYMPHOCYTE observed: 9670 cells/µL

molecule CN(CCOc1ccc(CC2SC(=O)NC2=O)cc1)c1ccccn1 (stereo not drawn) , ABSOLUTE LYMPHOCYTE observed: 11144.67 CELLS/uL

molecule CC(=O)Nc1nnc(S(N)(=O)=O)s1 [ACETAZOLAMIDE] , ABSOLUTE LYMPHOCYTE observed: 8545.5 CELLS/uL

molecule C#C[C@]1(O)CC[C@H]2[C@@H]3CCc4cc(O)ccc4[C@H]3CC[C@@]21C , ABSOLUTE LYMPHOCYTE observed: 14547 CELLS/uL

molecule CCn1cc(C(=O)O)c(=O)c2cc(F)c(N3CCNCC3)nc21 , ABSOLUTE LYMPHOCYTE observed: 14547 CELLS/uL
